- Test system: EOC-20 cells
- condition_set: Table V
measurement_kind: LD50

[[record]]
compound = "COc1cccc2c1cc([N+](=O)[O-])c1c(C(=O)O)cc3c(c12)OCO3"
measurement_kind = "LD50"
recorded_value = "100 µM"

[[record]]
compound = "COc1cc(/C=C/C(=O)CC(=O)/C=C/c2ccc(OC(C)=O)c(OC)c2)ccc1OC(C)=O"
measurement_kind = "LD50"
recorded_value = "Nontoxic"

[[record]]
compound = "CC(=O)Oc1ccc(CC(C)C(C)Cc2ccc(OC(C)=O)c(OC(C)=O)c2)cc1OC(C)=O (stereo not shown)"
measurement_kind = "LD50"
recorded_value = "Nontoxic"

[[record]]
compound = "c1cc2c(cc1[C@H]1OC[C@H]3[C@@H]1CO[C@@H]3c1ccc3c(c1)OCO3)OCO2"
measurement_kind = "LD50"
recorded_value = "Nontoxic"


---

- System: TNFα-Stimulated NO2^− Production in EOC-20 Cells
- experiment_notes: TNFα-stimulated nitrite (NO2−) production in EOC-20 microglial cells, Griess assay
- Type: cell-based, mouse
- condition_set: Mus musculus, Table V; read-out: IC50
- Protocol: Cells were cultured in 24 well plates until confluent then treated with test agent, which was dissolved at 100× final concentration in dimethylsulfoxide (DMSO), or with vehicle only. Thirty minutes after treatment with test agent, cells were treated with 10 ng/mL recombinant mouse TNFα (Pharmingen, San Diego, Calif. USA). […] Lower IC50 values indicate improved efficacy. […] For each compound, an LD50 value was determined by extrapolation through sublethal concentrations. […]
pIC50: −log10 of the molar value.
Tag: Satisfied if measured pIC50 is not below 5, Not satisfied if it is.

[[record]]
molecule = "COc1ccc2c(c1)c(CC(=O)O)c(C)n2C(=O)c1ccc(Cl)cc1 [Indomethacin]"
assigned_class = "Not satisfied"

[[record]]
molecule = "CS(=O)(=O)Nc1ccc([N+](=O)[O-])cc1Oc1ccccc1 [Nimesulide]"
assigned_class = "Not satisfied"

[[record]]
molecule = "C[C@H](Cc1ccc(O)c(O)c1)[C@@H](C)Cc1ccc(O)c(O)c1 [NDGA (natural), nordihydroguaiaretic acid]"
assigned_class = "Satisfied"

[[record]]
molecule = "c1cc2c(cc1[C@H]1OC[C@H]3[C@@H]1CO[C@@H]3c1ccc3c(c1)OCO3)OCO2 [Sesamin, sesamin]"
assigned_class = "Not satisfied"


---

- Test system: EOC-20 cells
Marks after values point to notes of the source that are not given here.
measurement_kind: LD50

[[record]]
compound = "O=C(/C=C/c1ccc(O)c(O)c1)O[C@H](Cc1ccc(O)c(O)c1)C(=O)O"
recorded_value = "nontoxic"

[[record]]
compound = "Cc1c(C)c2c(c(C)c1O)CC[C@@](C)(CCC[C@H](C)CCC[C@H](C)CCCC(C)C)O2"
recorded_value = "nontoxic"

[[record]]
compound = "COc1ccc(C[C@@H](C)[C@@H](C)Cc2ccc(OC)c(OC)c2)cc1OC"
recorded_value = "125* μM"

[[record]]
compound = "CN(C)[C@@H]1C(O)=C(C(N)=O)C(=O)[C@@]2(O)C(O)=C3C(=O)c4c(O)cccc4[C@@](C)(O)[C@H]3C[C@@H]12"
recorded_value = "nontoxic"

[[record]]
compound = "O=c1oc2c(O)c(O)cc3c(=O)oc4c(O)c(O)cc1c4c23"
recorded_value = "nontoxic"

[[record]]
compound = "CC(C)c1ccc2c(c1)c(SC(C)(C)C)c(CC(C)(C)C(=O)O)n2Cc1ccc(Cl)cc1"
recorded_value = "40 µM"

[[record]]
compound = "Oc1ccc(/C=C/c2cc(O)cc(O)c2)cc1 [Resveratrol, 3,4′,5-trihydroxy stilbene]"
recorded_value = "nontoxic"

[[record]]
compound = "O=c1c(O)c(-c2ccc(O)c(O)c2)oc2cc(O)cc(O)c12"
recorded_value = "nontoxic"

[[record]]
compound = "O=c1cc(-c2ccccc2)oc2cccc(O)c12"
recorded_value = "310 μm"

[[record]]
compound = "O=c1c(O)c(-c2ccccc2)oc2ccccc12"
recorded_value = "125 μm"

[[record]]
compound = "C(=C\\c1ccccc1)/c1ccccc1 [Trans-stilbene, Trans- stilbene]"
recorded_value = "nontoxic"

[[record]]
compound = "COc1ccc(/C=C/c2cc(O)cc(O[C@@H]3O[C@H](CO)[C@@H](O)[C@H](O)[C@H]3O)c2)cc1O"
recorded_value = "nontoxic"

[[record]]
compound = "COC1=C(OC)C(=O)C(C/C=C(\\C)CC/C=C(\\C)CC/C=C(\\C)CC/C=C(\\C)CC/C=C(\\C)CC/C=C(\\C)CC/C=C(\\C)CC/C=C(\\C)CC/C=C(\\C)CCC=C(C)C)=C(C)C1=O"
recorded_value = "nontoxic"

